TEST TARGET: T1, PDZRN3_1, Q9UPQ7
T1 sequence (Q9UPQ7 244-349, limits assumed, looked up): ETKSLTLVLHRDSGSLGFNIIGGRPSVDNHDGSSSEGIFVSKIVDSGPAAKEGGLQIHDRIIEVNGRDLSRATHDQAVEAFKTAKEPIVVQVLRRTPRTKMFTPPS
EXPERIMENT: holdup assay
Set-up: key: below the threshold = too weak to quantify, mostly under pKd 3.1 to 4
RUN CONDITIONS: plain residues with an end cap or a label only (N-terminal biotin on a linker: ttds)
MEASUREMENT LABEL: pKd

In [3]: df
Out[3]:
                       binder  measurement_label       value_measured
0   PFRSRSPSEV [GPR6, P46095]                pKd  below the threshold
1    KQVVPFSSSV [GDA, Q9Y2T3]                pKd  below the threshold
2  DLDEEEDTHL [PODXL, O00592]                pKd  below the threshold
